tested on: L1210 leukemia ip in BDF1 mice, survival T/C; test: NCI In Vivo Anticancer Drug Screen. Data for tumor model L1210 Leukemia (intraperitoneal) in B6D2F1 (BDF1) mice; conditions: endpoint: mean survival time; dose: 100.0 mg/kg/injection; schedule: Q01DX001 (ip); vehicle: Klucel (hydroxypropylcellulose) (HPC); higher = longer survival
Inconclusive results and toxic doses are left out.

molecule: COC(=O)C1CC(=O)c2ccc(OC)cc21 (configuration not stated)
target desc: L1210 leukemia ip in BDF1 mice, survival T/C
T/C: 102 % of control
//
molecule: O=C(N/N=C\c1ccc(O)cc1)N/N=C/c1ccc(O)cc1
target desc: L1210 leukemia ip in BDF1 mice, survival T/C
T/C: 94 % of control
//
molecule: O=S(=O)(Cc1ccccc1)CC(Cl)c1ccccc1 (configuration not stated)
target desc: L1210 leukemia ip in BDF1 mice, survival T/C
T/C: 98 % of control
//
molecule: COc1cc(OC)c(NC2=CC(c3ccc(Cl)cc3)OC2=O)cc1Cl (configuration not stated)
target desc: L1210 leukemia ip in BDF1 mice, survival T/C
T/C: 92 % of control
//
molecule: N=C1C(=O)c2ccccc2-c2ccccc21
target desc: L1210 leukemia ip in BDF1 mice, survival T/C
T/C: 97 % of control
//
molecule: Cc1ccc(S(=O)(=O)n2cc[nH]c2=O)cc1
target desc: L1210 leukemia ip in BDF1 mice, survival T/C
T/C: 100 % of control
//
molecule: Cc1cc(C)cc(Cc2ccc3ccccc3c2)c1
target desc: L1210 leukemia ip in BDF1 mice, survival T/C
T/C: 98 % of control
//
molecule: Nc1nc2ncc(CN(C(=O)C(F)(F)F)c3ccc(C(=O)NC(CCC(=O)O)C(=O)O)cc3)nc2c(=O)[nH]1 (configuration not stated)
target desc: L1210 leukemia ip in BDF1 mice, survival T/C
T/C: 100 % of control
//
molecule: Cc1ncc(CO)c(Nc2ccccc2)n1
target desc: L1210 leukemia ip in BDF1 mice, survival T/C
T/C: 90 % of control
//
molecule: CCCCCCCCCC(N)=O
target desc: L1210 leukemia ip in BDF1 mice, survival T/C
T/C: 110 % of control
//
molecule: CCCCCCCCCCCCCC(=O)OC1CCC2(C)C(=CCC3C2CCC2(C)C(C(C)CCCC(C)C)CCC32)C1 (configuration not stated)
target desc: L1210 leukemia ip in BDF1 mice, survival T/C
T/C: 89 % of control
//
molecule: Clc1ccc(SCC#CCOc2ccc(Cl)cc2Cl)cc1
target desc: L1210 leukemia ip in BDF1 mice, survival T/C
T/C: 89 % of control

---

system: L1210 leukemia ip in BDF1 mice, survival T/C; experiment: NCI In Vivo Anticancer Drug Screen. Data for tumor model L1210 Leukemia (intraperitoneal) in B6D2F1 (BDF1) mice; settings: endpoint: mean survival time; dose: 200.0 mg/kg/injection; schedule: Q01DX009 (ip); vehicle: Klucel (hydroxypropylcellulose) (HPC); higher = longer survival
Toxic doses and inconclusive results are not listed.
Listed below: T/C values for each entry.

compound: COC1OC(COS(C)(=O)=O)C(O)C(O)C1OS(C)(=O)=O (stereo not drawn)
T/C: 95 % of control

compound: CS(=O)(=O)OCC1CCCO1 (stereo not drawn)
T/C: 111 % of control

compound: Cc1ccc(N=Cc2ccc3c(c2)OCO3)cc1
T/C: 105 % of control

compound: O=C(Nc1cccc(F)c1)N(CC(O)c1ccccc1)C1CCCCC1 (stereo not drawn)
T/C: 100 % of control

compound: ClCCN=Cc1ccc(Cl)cc1
T/C: 91 % of control

compound: COc1cccc(NC(=O)Nc2ccccc2OC)c1
T/C: 108 % of control

compound: O=C1c2c(I)c(I)c(I)c(I)c2C(=O)N1CCO
T/C: 97 % of control

compound: O=C(N/N=C/C=C/c1ccccc1)c1ccccc1O
T/C: 89 % of control

compound: COC(=O)c1ccc([N+](=O)[O-])o1
T/C: 111 % of control

compound: O/N=C1/CCCC/C1=C/C=C/c1ccccc1
T/C: 97 % of control

compound: CCOC(=O)C(C)C1CCCc2c(C)ccc(C)c21 (stereo not drawn)
T/C: 102 % of control

compound: CCN(CC)c1ccc(C=Nc2cccc(C(F)(F)F)c2)cc1
T/C: 94 % of control

compound: O=C(O)C1CC2(CCC1c1ccccc1)SCCS2 (stereo not drawn)
T/C: 96 % of control
